tested on: MALME-3M melanoma; experiment: NCI-60 one-dose screen, 48 h (100 = growth as untreated, 0 = no growth, -100 = all killed); details: 10 µM unless noted
About 83,000 compounds went through this panel and 20% of them were active in at least one assay; those are over-represented in the sample as a whole.
Recorded growth values for a group of compounds are listed next.
Field: numeric (%). Do not append units.

INSERT INTO results (compound, target_desc, number) VALUES
  ('Cc1ccc(/C=C2\CN(C(=O)C(Cl)Cl)C/C(=C\c3ccc(C)cc3)C2=O)cc1', 'MALME-3M melanoma', -56.5);

Query COC(=O)Cc1nc(C#N)c(N(C)C)o1 yields growth of 105

Entry CCN(C(=O)N1CCN(c2cc3c(cc2F)c(=O)c(C(=O)O)cn3C2CC2)CC1)c1nc(-c2ccc(C)cc2)cs1 ; growth = 14.7

====

test system: T-47D breast; test: NCI-60 one-dose screen, 48 h (100 = growth as untreated, 0 = no growth, -100 = all killed); conditions: 10 µM unless noted
This is part of a sample that, as a whole, favours compounds with a hit. Of some 83,000 tested, about 20% had one in any assay.
growth listing for selected compounds.
Report the value in % with no unit label.

In the examples that follow, each entry is paired with its recorded growth.
INSERT INTO assay_data (compound, quantity_measured, number) VALUES
  ('CCN1C(=S)N(CC)C2C1NC(=S)N2/N=C/C=C/c1ccccc1OC (centres undefined)', 'growth', 59.4),
  ('O=c1[nH]c(-c2ccc(Cl)cc2)cn1-c1ccc(-n2cc(-c3ccc(Cl)cc3)[nH]c2=O)cc1', 'growth', 89.1),
  ('CCCCCCCCCCCCCCCCCCOc1ccccc1CC(=O)NCC[N+]1(C)CCOCC1', 'growth', 62.3),
  ('CC(C(=O)O)n1c(O)c(C=Nc2cccnc2)sc1=S (centres undefined)', 'growth', 81.2),
  ('C=CCOC(=O)C1=C(C)NC(=O)NC1c1c(Cl)n(C)c2ccccc12 (centres undefined)', 'growth', 92.5);

Then this compound:
growth for O=C(CSc1nc2ccc([N+](=O)[O-])cc2[nH]1)Nc1cccc([N+](=O)[O-])c1 is 16.2

====

System: OVCAR-3 ovarian
Experiment: NCI-60 one-dose screen, 48 h (100 = growth as untreated, 0 = no growth, -100 = all killed)
Conditions: 10 µM unless noted
Protocol: Growth inhibition of the OVCAR-3 human tumor cell line is measured as a screen for anti-cancer activity. Cells are grown in 96 well plates and exposed to the test compound for 48 hours. Compounds are tested at a single concentration, which is 10^-5 M for most compounds. The reported endpoint is percent growth (GI% or GIPRCNT), where numbers from 0 - 100% represent growth inhibition, and numbers from -100% - 0 represent cell death. For example, a value of 40 represents 60% growth inhibition. […]
Compounds without any hit were thinned out: in the full panel of roughly 83,000, 20% have a hit.
Catalogue of growth readings, one per entry.
Lab book: enter the figure in %, no units written.

Please review the following examples before continuing.
INSERT INTO assay_data (compound, quantity_measured, number) VALUES
  ('CC(C)[C@@]12C[C@@H](OC(=O)COC(=O)c3ccccc3)[C@@](C)(O1)[C@@H]1CC[C@@H](C)[C@H]1[C@@H]2OC(=O)/C=C/c1ccccc1', 'growth', 94.8),
  ('COc1cccc(C(=O)OCC(O)C(=O)NC23CC4CC(CC(C4)C2)C3)c1 (stereo not given)', 'growth', 111),
  ('S=c1[nH]c2cc(Cl)ccc2o1', 'growth', 114),
  ('COc1cc(/C=C\c2cc(/C=C\c3ccc(O)c(OC)c3)n(C(=O)CNc3ccc(Cl)cc3)n2)ccc1O', 'growth', 22.9);

Please examine the following record next.
Kindly note the recorded growth for O=C(N/N=C/c1ccc(O)cc1O)c1ccc(Nc2ccnc(C(F)(F)F)c2)cc1 , which is 61.6
